What pest or weed control at 63 g/ha was measured for each of the following?
system: barnyardgrass (Echinochloa oryzicola: ECHOR); test: Test Example 3: water application herbicidal activity, paddy (growth controlling degree); format: in vivo; settings: Echinochloa oryzicola, 336 h; rate 63 g a.i./ha; water application under submerged condition, paddy pot; barnyardgrass at 0.5 leaf stage
Numbers only, in %.

[
  {
    "compound": "Fc1cc(Cl)c2c(c1-c1ncc(C(F)(F)F)cc1Cl)CCCO2",
    "measuredAttribute": "pest or weed control at 63 g/ha",
    "recordedNumber": 100
  },
  {
    "compound": "Cn1nc(-c2c(F)cc(Cl)c3c2CCC(C)(C)O3)c(Cl)c1OC(F)F",
    "measuredAttribute": "pest or weed control at 63 g/ha",
    "recordedNumber": 100
  },
  {
    "compound": "CC1CCc2c(c(Cl)cc(F)c2-c2nn(C)c(C(F)(F)F)c2Cl)O1 (centres unmarked)",
    "measuredAttribute": "pest or weed control at 63 g/ha",
    "recordedNumber": 60
  }
]

I'm hoping you can list pest or weed control at 63 g/ha for every compound here, please.
1. Cn1nc(-c2c(F)cc(Cl)c3c2CCC(c2ccccc2)O3)c(Cl)c1OC(F)F (centres unmarked)
2. Cn1nc(-c2c(F)cc(Cl)c3c2CCCO3)c(Cl)c1C(F)(F)F
3. CC1CCc2c(c(Cl)cc(F)c2-c2nn(C)c(OC(F)F)c2Cl)O1 (centres unmarked)

### Response
1. 100
2. 40
3. 100

I'm hoping you can list pest or weed control at 63 g/ha for every compound here, please.
1. Cn1nc(-c2c(F)cc(Cl)c3c2CCCO3)c(Cl)c1OC(F)F
2. Fc1cc(Cl)c2c(c1-c1nn3c(c1Cl)CCCC3)CCCO2

### Response
100
100

====

test system: rice (Oryza sativa L.), ORYSA; assay: Test Example 2: post-emergence (foliage treatment) herbicidal activity (growth controlling degree); assay type: in vivo; settings: Oryza sativa, 504 h, 31 g a.i./ha, 1.6-2.2 leaf stage
measuredAttribute: plant injury at 31 g/ha (%)
Give bare numbers, in %.

Worked examples, 3 compounds total:
[
  {
    "compound": "Fc1cc(Cl)c2c(c1-c1nn3c(c1Cl)CCCC3)CCCO2",
    "plant injury at 31 g/ha (%)": 50
  },
  {
    "compound": "CC1CCc2c(c(Cl)cc(F)c2-c2nn(C)c(OC(F)F)c2Cl)O1 (stereo not shown)",
    "plant injury at 31 g/ha (%)": 98
  },
  {
    "compound": "Cn1nc(-c2c(F)cc(Cl)c3c2CCC(C)(C)O3)c(Cl)c1OC(F)F",
    "plant injury at 31 g/ha (%)": 70
  }
]

### Prompt Form field: reported plant injury at 31 g/ha of CC1CCc2c(c(Cl)cc(F)c2-c2nn(C)c(C(F)(F)F)c2Cl)O1 (stereo not shown)
### Response 40

====

system: soybean (Glycine max Merr.), GLXMA; experiment: Test Example 2: post-emergence (foliage treatment) herbicidal activity (growth controlling degree); assay type: in vivo; details: Glycine max, 504 h, 63 g a.i./ha, 0.2-0.3 leaf stage
What pest or weed control at 63 g/ha was measured for each of the following?
Answers are plain numbers, in %.

[
  {
    "molecule": "Cn1nc(-c2c(F)cc(Cl)c3c2CCC(c2ccccc2)O3)c(Cl)c1OC(F)F (stereo not shown) [Compound 1-42]",
    "recordedNumber": 60
  },
  {
    "molecule": "Cn1nc(-c2c(F)cc(Cl)c3c2CCCO3)c(Cl)c1C(F)(F)F [Compound 1-2]",
    "recordedNumber": 60
  },
  {
    "molecule": "Fc1cc(Cl)c2c(c1-c1ncc(C(F)(F)F)cc1Cl)CCCO2 [Compound 7-2]",
    "recordedNumber": 60
  }
]

Kindly review the next molecule as well.
### Prompt Form field: reported pest or weed control at 63 g/ha of Cn1nc(-c2c(F)cc(Cl)c3c2CCCO3)c(Cl)c1OC(F)F [Compound 1-33]
### Response 100

====

test system: green foxtail (Setaria viridis L.), SETVI; experiment: Test Example 2: post-emergence (foliage treatment) herbicidal activity (growth controlling degree); assay type: in vivo; details: Setaria viridis, 504 h, 31 g a.i./ha, 1.7-2.5 leaf stage
measuredAttribute: pest or weed control at 31 g/ha (%)
Give bare numbers, in %.

Worked examples, 3 compounds total:
[
  {
    "compound": "Fc1cc(Cl)c2c(c1-c1nn3c(c1Cl)CCCC3)CCCO2 [Compound 1-79]",
    "units": "%",
    "pest or weed control at 31 g/ha": 100
  },
  {
    "compound": "Cn1nc(-c2c(F)cc(Cl)c3c2CCC(C)(C)O3)c(Cl)c1OC(F)F [Compound 1-40]",
    "units": "%",
    "pest or weed control at 31 g/ha": 100
  },
  {
    "compound": "CC1CCc2c(c(Cl)cc(F)c2-c2nn(C)c(C(F)(F)F)c2Cl)O1 (stereo not shown) [Compound 1-8]",
    "units": "%",
    "pest or weed control at 31 g/ha": 30
  }
]

Kindly review the next compound as well.
### Prompt Form field: reported pest or weed control at 31 g/ha of CC1CCc2c(c(Cl)cc(F)c2-c2nn(C)c(OC(F)F)c2Cl)O1 (stereo not shown) [Compound 1-39]
### Response 100

====

system: rice (Oryza sativa L.): ORYSA; experiment: Test Example 1: pre-emergence herbicidal activity (growth controlling degree); assay type: in vivo; conditions: 250 g a.i./ha, 20th to 21st day after application
Label condition met when growth controlling degree, ORYSA is strictly below 40%; at or above that, label condition not met.

Example results:
[
  {
    "compound": "CC1CCc2c(c(Cl)cc(F)c2-c2nn(C)c(OC(F)F)c2Cl)O1 (stereo not drawn) [Compound 1-39]",
    "discreteLabel": "condition not met"
  },
  {
    "compound": "CC1CCc2c(c(Cl)cc(F)c2-c2nn3c(c2Cl)CCCC3)O1 (stereo not drawn) [Compound 1-85]",
    "discreteLabel": "condition met"
  },
  {
    "compound": "Fc1cc(Cl)c2c(c1-c1nn3c(c1Cl)CCCC3)CCCO2 [Compound 1-79]",
    "discreteLabel": "condition met"
  },
  {
    "compound": "Fc1cc(Cl)c2c(c1-c1ncc(C(F)(F)F)cc1Cl)CCCO2 [Compound 7-2]",
    "discreteLabel": "condition not met"
  }
]

Okay, next one:
### Prompt Does the reported growth controlling degree, ORYSA of CC1CCc2c(c(Cl)cc(F)c2-c2nn(C)c(C(F)(F)F)c2Cl)O1 (stereo not drawn) [Compound 1-8] stay below 40%?
### Response condition met

====

What pest or weed control at 63 g/ha was measured for each of the following?
system: barnyardgrass (Echinochloa crus-galli L.), ECHCG; assay: Test Example 2: post-emergence (foliage treatment) herbicidal activity (growth controlling degree); format: in vivo; details: Echinochloa crus-galli, 504 h, 63 g a.i./ha, 1.8-2.4 leaf stage
Numbers only, in %.

Worked examples, 3 molecules total:
[
  {
    "molecule": "Cn1nc(-c2c(F)cc(Cl)c3c2CCCO3)c(Cl)c1C(F)(F)F",
    "recordedNumber": 98
  },
  {
    "molecule": "Cn1nc(-c2c(F)cc(Cl)c3c2CCCO3)c(Cl)c1OC(F)F",
    "recordedNumber": 100
  },
  {
    "molecule": "Cn1nc(-c2c(F)cc(Cl)c3c2CCC(c2ccccc2)O3)c(Cl)c1OC(F)F (stereo not shown)",
    "recordedNumber": 60
  }
]

### Prompt Form field: reported pest or weed control at 63 g/ha of `Fc1cc(Cl)c2c(c1-c1ncc(C(F)(F)F)cc1Cl)CCCO2`
### Response 80

====

tested on: japanese ribbon wapato (Sagittaria pygmaea: SAGPY); experiment: Test Example 3: water application herbicidal activity, paddy (growth controlling degree); assay type: in vivo; details: rate 63 g a.i./ha; water application under submerged condition, paddy pot; tubers of japanese ribbon wapato planted
measuredAttribute: Water Application Herbicidal Activity SAGPY (growth controlling degree) (%)
Numbers only, in %.

Worked examples, 8 compounds total:
[
  {
    "compound": "Cn1nc(-c2c(F)cc(Cl)c3c2CCCO3)c(Cl)c1C(F)(F)F [Compound 1-2]",
    "units": "%",
    "recordedNumber": 0
  },
  {
    "compound": "CC1CCc2c(c(Cl)cc(F)c2-c2nn(C)c(C(F)(F)F)c2Cl)O1 (stereo not drawn) [Compound 1-8]",
    "units": "%",
    "recordedNumber": 40
  },
  {
    "compound": "Cn1nc(-c2c(F)cc(Cl)c3c2CCC(C)(C)O3)c(Cl)c1OC(F)F [Compound 1-40]",
    "units": "%",
    "recordedNumber": 95
  },
  {
    "compound": "CC1CCc2c(c(Cl)cc(F)c2-c2nn3c(c2Cl)CCCC3)O1 (stereo not drawn) [Compound 1-85]",
    "units": "%",
    "recordedNumber": 100
  },
  {
    "compound": "Cn1nc(-c2c(F)cc(Cl)c3c2CCCO3)c(Cl)c1OC(F)F [Compound 1-33]",
    "units": "%",
    "recordedNumber": 100
  },
  {
    "compound": "Fc1cc(Cl)c2c(c1-c1nn3c(c1Cl)CCCC3)CCCO2 [Compound 1-79]",
    "units": "%",
    "recordedNumber": 100
  },
  {
    "compound": "CC1CCc2c(c(Cl)cc(F)c2-c2nn(C)c(OC(F)F)c2Cl)O1 (stereo not drawn) [Compound 1-39]",
    "units": "%",
    "recordedNumber": 100
  },
  {
    "compound": "Cn1nc(-c2c(F)cc(Cl)c3c2CCC(c2ccccc2)O3)c(Cl)c1OC(F)F (stereo not drawn) [Compound 1-42]",
    "units": "%",
    "recordedNumber": 100
  }
]

Kindly review the next compound as well.
### Prompt Form field: reported Water Application Herbicidal Activity SAGPY (growth controlling degree) of CCCCCC1CCc2c(c(Cl)cc(F)c2-c2nn(C)c(OC(F)F)c2Cl)O1 (stereo not drawn) [Compound 1-101]
### Response 100
